Test system: HCV Replicon
Experiment: HCV Replicon Luciferase Assay
Format: cell-based, Hepatitis C virus
Conditions: Hepatitis C virus; Huh-Luc-Neo cells, 48 h incubation, luciferase reporter; read-out: Replicon Inhibition*, Luciferase
Method: The identification of inhibitors of HCV replication and/or proliferation has been facilitated by the development of a cell-based system to study HCV replication. […] Expression of HCV IRES driven luciferase reporter activity and HCV RNA is measured to obtain indirect and direct measures of replication of HCV RNA respectively. […]
pIC50: −log10 of the molar value.
Please respond with reported pIC50 for every item in the list.

Hello, please tell me recorded pIC50 for this one: Cc1cc2c(Sc3ccc(N)cc3)cc(=O)n(C)c2cc1C [compound 035]
> 6.00

Specify pIC50 for Cc1ccc2c(c1)c(Sc1ccc(Br)cc1)cc(=O)n2C [compound 031] and stop.
> 6.00

Report pIC50 for COc1ccc2c(c1)c(Sc1ccc(N)cc1)cc(=O)n2C [compound 030]
> 6.00

Output pIC50 of Cn1c(=O)cc(Sc2ccc(F)cc2)c2cc(F)ccc21 [compound 018]
5.00 to 6.00

Tell me its pIC50 given Cn1c(=O)cc(Sc2ccc(I)cc2)c2ccccc21 [compound 014] as the entry.
5.00 to 6.00

State, in one line, measured pIC50 of Cn1c(=O)cc(Sc2ccc(Br)cc2)c2ccccc21 [compound 001]
5.00 to 6.00

Tell me measured pIC50 for Cc1cc2c(Sc3ccc(F)cc3)cc(=O)n(C)c2cc1C [compound 037] please.
> 6.00

Return the recorded pIC50 value; entry: C[C@H](OCc1ccccc1)[C@@H](NC(=O)OC(C)(C)C)C(=O)Nc1ccc(Sc2cc(=O)n(C)c3ccccc23)cc1 [compound 023]
5.00 to 6.00

For the compound COc1ccc2c(c1)c(Sc1ccc(C)cc1)cc(=O)n2C [compound 029] , give its reported pIC50.
> 6.00

###

Tested on: HCV Replicon
Experiment: HCV Replicon Luciferase Assay
Assay type: cell-based, Hepatitis C virus
Conditions: Hepatitis C virus; Huh-Luc-Neo cells, 48 h incubation, luciferase reporter; read-out: Replicon Inhibition*, Luciferase
pIC50: −log10 of the molar value.
READOUT TYPE: pIC50

Give pIC50 for the following compound: COc1ccc(Sc2cc(=O)n(C)c3ccccc23)cc1 [compound 012]
5.00 to 6.00

Specify measured pIC50 for Cc1ccc(Sc2cc(=O)n(C)c3ncccc23)cc1 [compound 020] .
> 6.00

Tell me pIC50 reported for Cn1c(=O)cc(Sc2ccc(Br)cc2)c2cc(Cl)ccc21 [compound 011]
5.00 to 6.00

For the compound Cn1c(=O)cc(Sc2ccc(Cl)cc2)c2cc(F)ccc21 [compound 015] , report pIC50.
5.00 to 6.00

Give the value of pIC50 reported for the following: Cn1c(=O)cc(Sc2ccc(NC(=O)[C@@H](NC(=O)OC(C)(C)C)C3CCCCC3)cc2)c2ccccc21 [compound 024]
> 6.00

Recall and state the measured pIC50 for Cn1c(=O)cc(Sc2ccc(N)cc2)c2ccc(Cl)cc21 [compound 027] .
> 6.00

Output pIC50 of Cn1c(=O)cc(Sc2c(Cl)cccc2Cl)c2ccccc21 [compound 004]
5.00 to 6.00

Please list pIC50 recorded for the compound Cn1c(=O)cc(Sc2cc(Cl)ccc2Cl)c2ccccc21 [compound 006]
4.00 to 5.00

Retrieve pIC50 measured for CCc1ccc2c(c1)c(Sc1ccc(N)cc1)cc(=O)n2C [compound 038] and print it.
> 6.00

Supply recorded pIC50 for Cn1c(=O)cc(Sc2ccc(N)cc2)c2ccccc21 [compound 009] here.
> 6.00

Indicate its recorded pIC50; the compound in question is Cc1ccc(Sc2cc(=O)n(C)c3ccc(F)cc23)cc1 [compound 016]
5.00 to 6.00

State its pIC50: Cc1ccc2c(c1)c(Sc1ccc(F)cc1)cc(=O)n2C [compound 026]
> 6.00

Return reported pIC50. Input compound: Cn1c(=O)cc(Sc2cccc(F)c2)c2ccccc21 [compound 007]
5.00 to 6.00

Give the value of pIC50 reported for the following: Cn1c(=O)cc(Sc2ccccc2F)c2ccccc21 [compound 005]
5.00 to 6.00

Specify pIC50 for Cn1c(=O)cc(Sc2ccc(NC(=O)[C@H](Cc3ccccc3)NC(=O)OC(C)(C)C)cc2)c2ccccc21 [compound 022] and stop.
5.00 to 6.00

Identify measured pIC50 associated with Cn1c(=O)cc(Sc2ccc(NC(=O)[C@H](Cc3ccc(F)cc3)NC(=O)OC(C)(C)C)cc2)c2ccccc21 [compound 025]
5.00 to 6.00

Tell me its pIC50 given Cn1c(=O)cc(Sc2ccc(C(C)(C)C)cc2)c2ccccc21 [compound 013] as the entry.
5.00 to 6.00

Specify pIC50 for Cc1ccc2c(c1)c(Sc1ccc(N)cc1)cc(=O)n2C [compound 033] and stop.
> 6.00

Give reported pIC50 value for Cc1ccc2c(c1)c(Sc1ccc(Cl)cc1)cc(=O)n2C [compound 028]
> 6.00
